Would you kindly list activity, negative = cell killing for each of these compounds?
# Assay Explanation: Drug repurposing screens with cells derived from glioblastoma tumor samples (AID 1345199); further: on the % scale 0 is the no-effect control and ±100 the full control effect; nearly all actives have a fitted effect of over 40% in size
# Test Settings: GBM patient neurospheres viability, ATP luminescence, 48 h; at 45.9 µM (top of the series); tumour line D
Inconclusive results are not listed.
Record the value in %, omitting the unit from your answer.

Req: Read the entry C#C[C@]1(O)CC[C@H]2[C@@H]3CCC4=CC(=O)CCC4=C3C=C[C@@]21CC and write its reported activity, negative = cell killing.
Resp: -22

Req: Read the entry C[C@H](N)[C@H](O)c1ccc(O)c(O)c1 and write its reported activity, negative = cell killing.
Resp: -15.2

Req: Read the entry C#C[C@]1(O)C=C[C@H]2[C@@H]3CCC4=CC(=O)CC[C@@H]4[C@H]3CC[C@@]21CC and write its reported activity, negative = cell killing.
Resp: -10.7

Req: Read the entry CCOP(=S)(OCC)O/N=C(\C#N)c1ccccc1 and write its reported activity, negative = cell killing.
Resp: -6.28

Req: Read the entry Nc1ccc(N)cc1 and write its reported activity, negative = cell killing.
Resp: -20.4

Req: Read the entry Cc1c(Cl)c(=O)oc2cc(OP(=O)(OCCCl)OCCCl)ccc12 and write its reported activity, negative = cell killing.
Resp: -23.1

Req: Read the entry CC(C)NCC(O)c1ccc(N)c(C#N)c1 (stereo not drawn) and write its reported activity, negative = cell killing.
Resp: -5.78

Req: Read the entry Oc1c(Br)cc(Br)cc1Br and write its reported activity, negative = cell killing.
Resp: 14.2

====

# Assay Explanation: qHTS of pediatric cancer cell lines to identify multiple opportunities for drug repurposing: Primary screen for SK-N-MC cells (AID 1347093)
# Test Settings: SK-N-MC viability, CellTiter-Glo luminescence, 48 h; series mostly up to 46 µM
Inconclusive results are not listed. Active and inactive are the calls of the source. Calls come from the whole dose curve; as a rule, active = well fitted cell-killing curve with a large enough effect; inconclusive = small, poorly fitted or top-dose-only effect; inactive = no such curve, though single readings can be large or run the other way.
Give one outcome, nothing more. List: active, inactive

Req: What did the test return for CCS(=O)(=O)C(C)(C)S(=O)(=O)CC ?
Resp: inactive

Req: What did the test return for COc1cc(CC(C)N)cc2c1OCO2 (configuration not stated) ?
Resp: inactive

Req: What did the test return for Cc1cccc(Cc2cnc[nH]2)c1C ?
Resp: inactive

Req: What did the test return for Cc1ncc2n1-c1ccc(Cl)cc1C(c1ccccc1F)=NC2 ?
Resp: inactive

Req: What did the test return for OC(c1ccccc1)(c1ccccc1)C1CCNCC1 ?
Resp: inactive

Req: What did the test return for COc1cc(CC(C)N)c(OC)cc1Br (configuration not stated) ?
Resp: active

Req: What did the test return for O=C(CCCCl)c1ccc(F)cc1 ?
Resp: inactive

Req: What did the test return for CN1C2CCC(C)(C)C1CC(OC(=O)C(O)(c1cccs1)c1cccs1)C2 (configuration not stated) ?
Resp: inactive

Req: What did the test return for COc1cc(C[C@@H](C)N)c(OC)cc1C ?
Resp: inactive

Req: What did the test return for CN1C[C@@H](NS(=O)(=O)N(C)C)C[C@@H]2c3cccc4c3c(cn4C)C[C@H]21 ?
Resp: inactive

Req: What did the test return for Clc1ccc(CSC(Cn2ccnc2)c2ccc(Cl)cc2Cl)cc1 (configuration not stated) ?
Resp: active

Req: What did the test return for C[N+]1(CCC(C(N)=O)(c2ccccc2)c2ccccc2)CCCCC1 ?
Resp: inactive

====

# System: CP252
# Assay Explanation: qHTS profiling for inhibitors of Plasmodium falciparum proliferation (AID 504749);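 further: 0% = DMSO vehicle and full inhibition = artemisinin control; nearly all actives have a fitted effect of over 60% in size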
# Test Settings: P. falciparum in erythrocytes, SYBR Green DNA, 72 h; series mostly up to 28.7 µM
Records with an inconclusive call do not appear. Active and inactive are the calls of the source. Calls come from the whole dose curve; as a rule, active = well fitted inhibition curve with a large enough effect; inconclusive = small, poorly fitted or top-dose-only effect; inactive = flat fitted curve, though single readings scatter.

Structure As Smiles	outcome
Cc1ncc2n1-c1ccc(Cl)cc1C(c1ccccc1F)=NC2	inactive
CC(C)[N+](C)(CCC(C(N)=O)(c1ccccc1)c1ccccc1)C(C)C	inactive
c1ccc2nc(N3CCNCC3)ccc2c1	inactive
